Measured IC50 values are reported for all entries that follow.
assayed system: human PKR1 receptors (Homo sapiens, UniProt Q8TCW9)
Sequence (Q8TCW9 whole entry): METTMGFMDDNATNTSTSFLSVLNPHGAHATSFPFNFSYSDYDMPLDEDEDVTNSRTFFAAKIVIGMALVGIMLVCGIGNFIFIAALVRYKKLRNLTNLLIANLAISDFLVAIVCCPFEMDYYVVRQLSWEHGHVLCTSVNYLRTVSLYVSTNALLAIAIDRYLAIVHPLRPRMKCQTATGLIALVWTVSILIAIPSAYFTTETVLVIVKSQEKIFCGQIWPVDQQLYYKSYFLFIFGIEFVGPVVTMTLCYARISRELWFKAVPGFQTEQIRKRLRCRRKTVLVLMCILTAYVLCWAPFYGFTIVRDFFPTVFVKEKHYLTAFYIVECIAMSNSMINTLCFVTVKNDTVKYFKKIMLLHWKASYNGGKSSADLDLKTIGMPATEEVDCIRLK
experiment summary: PKR1 antagonist assay: block of PK1-mediated intracellular calcium release (FLIPR Tetra, Calcium 5 dye)
reported conditions: RBL2H3 cells expressing human PKR1; 10 min pre-incubation, stimulation with PK1 at EC80; calcium fluorescence
Use nM as the unit, but write only the number.

molecule	assayed system	output unit	observed
Cc1nn(C)c(C)c1S(=O)(=O)N1CCC(Oc2ccccc2)CC1	human PKR1 receptors (Homo sapiens, UniProt Q8TCW9)	nM	5600
Cc1n[nH]c(C)c1S(=O)(=O)N1CCC(Oc2ccc(Cl)c(F)c2)CC1	human PKR1 receptors (Homo sapiens, UniProt Q8TCW9)	nM	1900
COc1cc(Cl)ccc1OC1CCN(S(=O)(=O)c2c(C)n[nH]c2C)CC1	human PKR1 receptors (Homo sapiens, UniProt Q8TCW9)	nM	200
Cc1n[nH]c(C)c1S(=O)(=O)N1CCC(C(F)c2ccc(Cl)cc2)CC1 (stereo not drawn) [Example 105]	human PKR1 receptors (Homo sapiens, UniProt Q8TCW9)	nM	410
Cc1n[nH]c(C)c1S(=O)(=O)N1CCC(C(C)c2ccc(Cl)cc2)CC1 (stereo not drawn)	human PKR1 receptors (Homo sapiens, UniProt Q8TCW9)	nM	470
Cc1n[nH]c(C)c1S(=O)(=O)N1CCC(C(F)c2ccc(Cl)cc2)CC1 (single isomer, unassigned) [Example 107]	human PKR1 receptors (Homo sapiens, UniProt Q8TCW9)	nM	310
Cc1n[nH]c(C)c1S(=O)(=O)N1CCC(Oc2ccc3ccccc3c2)CC1	human PKR1 receptors (Homo sapiens, UniProt Q8TCW9)	nM	440
COc1ccc(OC2CCN(S(=O)(=O)c3c(C)nn(C)c3C)CC2)cc1	human PKR1 receptors (Homo sapiens, UniProt Q8TCW9)	nM	7000
Cc1n[nH]c(C)c1S(=O)(=O)N1CCC(Oc2ccc(OC(F)(F)F)cc2)CC1	human PKR1 receptors (Homo sapiens, UniProt Q8TCW9)	nM	3400
Cc1nn(C)c(C)c1S(=O)(=O)N1CCC(Oc2ccc(Cl)cc2Cl)CC1	human PKR1 receptors (Homo sapiens, UniProt Q8TCW9)	nM	790

Problem: Returns the measured IC50 for the input molecule. Input: "Cc1cnn(C)c1S(=O)(=O)N1CCC(Oc2ccc(Cl)cc2)CC1"
Solution: 7400

Problem: For "Cc1nn(C)c(C)c1S(=O)(=O)N1CCC(Cc2ccc(Cl)cc2)CC1" then?
Solution: 520

Problem: For "Cc1ccc(OC2CCN(S(=O)(=O)c3c(C)nn(C)c3Cl)CC2)cc1" then?
Solution: 860

Problem: For "Cc1nn(C)c(C)c1S(=O)(=O)N1CCC(Oc2ccc3ccccc3c2)CC1" then?
Solution: 220

Problem: For COC(c1ccccc1)C1CCN(S(=O)(=O)c2c(C)n[nH]c2C)CC1 (stereo not drawn) then?
Solution: 3010

Problem: For "COc1cccc(OC2CCN(S(=O)(=O)c3c(C)nn(C)c3C)CC2)c1" then?
Solution: 3600

Problem: For Cc1n[nH]c(C)c1S(=O)(=O)N1CCC(C(CO)c2ccc(Cl)cc2)CC1 (stereo not drawn) then?
Solution: 9420

Problem: For "Cc1nn(C)c(C)c1S(=O)(=O)N1CCC(Oc2ccc(Cl)cc2F)CC1" then?
Solution: 510

###

assayed system: human PKR1 receptors (Homo sapiens)
experiment summary: PKR1 antagonist assay: block of PK1-mediated intracellular calcium release (FLIPR Tetra, Calcium 5 dye)
reported conditions: RBL2H3 cells expressing human PKR1; 10 min pre-incubation, stimulation with PK1 at EC80; calcium fluorescence
quantity measured: pIC50
Lab note — pIC50 values are minus log10 of concentrations in M.

Please review the following examples before continuing.
compound	assayed system	pIC50
COc1cc(Cl)ccc1CC1(O)CCN(S(=O)(=O)c2c(C)n[nH]c2C)CC1 [Example 89]	human PKR1 receptors (Homo sapiens)	6.39
Cc1nn(C)c(C)c1S(=O)(=O)N1CCC(Oc2ccc(Cl)cc2C(F)(F)F)CC1 [Example 39]	human PKR1 receptors (Homo sapiens)	6.68
Cc1nn(C)c(C)c1S(=O)(=O)N1CCC(Cc2ccc(Cl)c(F)c2)CC1 [Example 72]	human PKR1 receptors (Homo sapiens)	6.36
CCc1n[nH]c(CC)c1S(=O)(=O)N1CCC(Cc2ccc(Cl)cc2)CC1 [Example 66]	human PKR1 receptors (Homo sapiens)	6.00
Cc1nn(C)c(C)c1S(=O)(=O)N1CCC(O)(Cc2ccc(Cl)cc2Cl)CC1 [Example 59]	human PKR1 receptors (Homo sapiens)	5.62

Problem: Returns the measured pIC50 for the input compound. Input: Cc1nn(C)c(C)c1S(=O)(=O)N1CCC(Oc2ncc(Cl)cc2F)CC1 [Example 77]
Solution: 5.50

Problem: For Cc1n[nH]c(C)c1S(=O)(=O)N1CCC(Oc2ccc(Cl)cc2Cl)CC1 [Example 22] then?
Solution: 5.93

Problem: For Cc1nn(C)c(C)c1S(=O)(=O)N1CCC(Oc2cccc(Cl)c2)CC1 [Example 6] then?
Solution: 5.66

Problem: For Cc1n[nH]c(C)c1S(=O)(=O)N1CCC(F)(Cc2ccc(Cl)cc2F)CC1 [Example 80] then?
Solution: 6.09

###

assayed system: human PKR1 receptors (Homo sapiens)
experiment summary: PKR1 antagonist assay: block of PK1-mediated intracellular calcium release (FLIPR Tetra, Calcium 5 dye)
reported conditions: RBL2H3 cells expressing human PKR1; 10 min pre-incubation, stimulation with PK1 at EC80; calcium fluorescence
quantity measured: pIC50
Lab note — pIC50 values are minus log10 of concentrations in M.

Please review the following examples before continuing.
molecule	assayed system	observed
COc1cc(Cl)ccc1CC1(O)CCN(S(=O)(=O)c2c(C)nn(C)c2C)CC1	human PKR1 receptors (Homo sapiens)	6.70
Cc1nn(C)c(Cl)c1S(=O)(=O)N1CCC(Oc2ccc(Cl)cc2Cl)CC1	human PKR1 receptors (Homo sapiens)	5.89
Cc1nn(C)c(C)c1S(=O)(=O)N1CCC(Cc2ccc(Cl)c(Cl)c2)CC1	human PKR1 receptors (Homo sapiens)	6.02
COC(c1ccc(Cl)cc1)C1CCN(S(=O)(=O)c2c(C)n[nH]c2C)CC1 (stereo not shown) [Example 96]	human PKR1 receptors (Homo sapiens)	7.10
Cc1nn(C)c(C)c1S(=O)(=O)N1CCC(C(O)c2ccc(Cl)cc2)CC1 (stereo not shown)	human PKR1 receptors (Homo sapiens)	6.15

Problem: Returns the measured pIC50 for the input molecule. Input: "Cc1cnn(C)c1S(=O)(=O)N1CCC(Oc2ccc(Cl)cc2Cl)CC1"
Solution: 5.96

Problem: For "CCc1nn(C)c(CC)c1S(=O)(=O)N1CCC(Oc2ccc(Cl)cc2Cl)CC1" then?
Solution: 6.49

Problem: For "COC1(Cc2ccc(Cl)cc2)CCN(S(=O)(=O)c2c(C)nn(C)c2C)CC1" then?
Solution: 5.62

Problem: For "Cc1nn(C)c(C)c1S(=O)(=O)N1CCC(Oc2ccc(F)cc2)CC1" then?
Solution: 5.44

Problem: For COC(c1ccc(Cl)cc1)C1CCN(S(=O)(=O)c2c(C)n[nH]c2C)CC1 (single isomer, unassigned) [Example 97] then?
Solution: 5.34

###

Measured pIC50 values are reported for all entries that follow.
assayed system: human PKR1 receptors (Homo sapiens)
Construct: expressed in transfected cells; host or cells: RBL2H3 cells (rat basophilic leukaemia line) expressing human PKR1
experiment summary: PKR1 antagonist assay: block of PK1-mediated intracellular calcium release (FLIPR Tetra, Calcium 5 dye)
Type: cell-based
reported conditions: RBL2H3 cells expressing human PKR1; 10 min pre-incubation, stimulation with PK1 at EC80; calcium fluorescence
Lab note — pIC50 values are minus log10 of concentrations in M.

Please review the following examples before continuing.
compound	observed
CCOC(=O)C1(Cc2ccc(Br)cc2)CCN(S(=O)(=O)c2c(C)nn(C)c2C)CC1 [Example 63]	6.19
Cc1nn(C)c(C)c1S(=O)(=O)N1CCC(Oc2ccc(Cl)c(F)c2)CC1 [Example 45]	5.85
CCOC(=O)C1(Cc2ccc(Cl)cc2)CCN(S(=O)(=O)c2c(C)nn(C)c2C)CC1 [Example 61]	5.97
Cc1nn(C)c(C)c1S(=O)(=O)N1CCC(Oc2ccc(Cl)cc2C#N)CC1 [Example 31]	6.51
Cc1nn(C)c(C)c1S(=O)(=O)N1CCC(F)(Cc2ccc(Cl)cc2F)CC1 [Example 81]	6.17
Cc1n[nH]c(C)c1S(=O)(=O)N1CCC(Oc2ccc(Cl)cc2C#N)CC1 [Example 34]	6.62

Next up:
Problem: Returns the measured pIC50 for the input compound. Input: COc1cc(Cl)ccc1CC1(F)CCN(S(=O)(=O)c2c(C)nn(C)c2C)CC1 [Example 91]
Solution: 6.85

###

assayed system: human PKR1 receptors (Homo sapiens)
experiment summary: PKR1 antagonist assay: block of PK1-mediated intracellular calcium release (FLIPR Tetra, Calcium 5 dye)
reported conditions: RBL2H3 cells expressing human PKR1; 10 min pre-incubation, stimulation with PK1 at EC80; calcium fluorescence
Measured pIC50 values are reported for all entries that follow.
Lab note — pIC50 values are minus log10 of concentrations in M.

Please review the following examples before continuing.
Cc1nn(C)c(C)c1S(=O)(=O)N1CCC(Cc2ccc(Cl)cc2F)CC1 6.14
Cc1nn(C)c(C)c1S(=O)(=O)N1CCC(O)(Cc2ccc(Cl)c(Cl)c2)CC1 5.19

Problem: // lookup pIC50 | system=human PKR1 receptors (Homo sapiens) | key= "Cc1nn(C)c(C)c1S(=O)(=O)N1CCC(Nc2ccc(Cl)cc2)CC1"
Solution: 5.82

Problem: For "Cc1n[nH]c(C)c1S(=O)(=O)N1CCC(C#N)(Cc2ccc(Cl)cc2Cl)CC1" then?
Solution: 6.03

Problem: For "Cc1nn(C)c(C)c1S(=O)(=O)N1CCC(Oc2ccc(Cl)cn2)CC1" then?
Solution: 5.42

Problem: For "Cc1n[nH]c(C)c1S(=O)(=O)N1CCC(Nc2ccc(Cl)cc2)CC1" then?
Solution: 5.75

Problem: For "Cc1n[nH]c(C)c1S(=O)(=O)N1CCC(Cc2ccc(Cl)cc2F)CC1" then?
Solution: 5.99

Problem: For "Cc1nn(C)c(C)c1S(=O)(=O)N1CCC(C(=O)c2ccc(Cl)c(Cl)c2)CC1" then?
Solution: 5.68

Problem: For "Cc1n[nH]c(C)c1S(=O)(=O)N1CCC(C#N)(Cc2ccc(Cl)cc2)CC1" then?
Solution: 6.05
